Reference for the values: PubChem BioAssay AID1645868

- tgt: OTU domain-containing protein 3 (Homo sapiens)
- testProtocol: Validation of screening hits, potency titration, in vitro enzymatic, OTU domain-containing protein 3 DUB inhibitors (AID 1645868)
- runParameters: purified OTUD3, ubiquitin-rhodamine cleavage fluorescence, 2 h
Calls of active or inactive are those of the source.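 Rule for the calls: active = maximal percent inhibition of the deubiquitinase OTUD3 of at least 30% across the tested doses; inactive = the rest.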
Outcomes: YES = active, NO = inactive

- Cc1ccc(NC(=O)Cn2cc(S(=O)(=O)N3CCCC3)ccc2=O)cc1: YES
- CC(C)N1CC[C@@H]2[C@H](C1)CN2C(=O)Nc1cccc(F)c1: NO
- Cn1nc(-c2nc(-c3ccccc3)no2)c2c1CCN(C(=O)C1CC1)C2: NO
- COc1ccc2nc(Nc3ncc4c(n3)CCCC4=O)nc(C)c2c1: NO
- COc1ccc(C(C)NC(=O)c2cnc(-c3ccccc3)nc2-c2ccncc2)cc1 (stereo unspecified): NO
- CC1CCCN(S(=O)(=O)c2cc3cc(F)ccc3oc2=O)C1 (stereo unspecified): NO
- O=C(Cn1c(=O)n(Cc2ccc3c(c2)OCO3)c(=O)c2ncccc21)c1ccccc1: NO
- COc1ccc(N(CC(=O)NC2CCCCC2)C(=O)c2ccc(-c3ccccc3)[nH]2)cc1OC: YES
- COC(=O)[C@]1(O)O[C@@]2(C(=O)OC)c3c(oc4cc(C)cc(O)c4c3=O)[C@H]3c4c(oc5cc(C)cc(O)c5c4=O)C[C@H]1[C@H]32: NO
- CC1=C(C)C(c2c(-c3ccc(C)cc3)[nH]c3ccccc23)N(C(C)(C)C)C1=O (stereo unspecified): YES
- O=C(Nc1ncc2c(n1)-c1ccccc1CC2)C1CC1: YES
- COc1ccc(C(=O)NCC(c2ccc3c(c2)CCCN3C)N2CCCC2)cc1 (stereo unspecified): NO
- O=C(Cn1c(-c2ccccc2)ncc(C(=O)NC2CC2)c1=O)Nc1ccccc1: YES
- COc1cccc(N2CCN(C(=O)Nc3ccc4c(c3)NC(=O)CO4)CC2)c1: YES
- COc1ccc2nc(Nc3nc(-c4cnc(N5CCOCC5)nc4C)cc(=O)[nH]3)nc(C)c2c1: NO
- c1ccc2c(c1)ccc1nnc(-c3ccc4c(c3)OCO4)n12: NO
- Oc1ccc(-c2nc3ccc(Cl)cn3c2NC2CCCCC2)cc1: YES
- C[C@@H]1OC2=C(C(=O)c3cccc(O)c3C2=O)[C@H](O)[C@@H]1O: YES
- Cc1cc(-c2ccnc3c(C#N)cnn23)c(C)s1: NO
- COCC(C)Nc1ncc(-c2cnccn2)c(-c2ccc(C)s2)n1 (stereo unspecified): NO
- CS(=O)(=O)N1CCCc2cc(C(=O)Nc3ccc4c(c3)OCO4)ccc21: NO
- Nc1ccc(F)c(NS(=O)(=O)c2ccccc2)c1: NO
- CC(=O)N1CCCC(c2nc(C)cc(-c3cc(F)ccc3C(=O)O)n2)C1 (stereo unspecified): NO
- O=C(COc1nc2ccccc2nc1N1CCOCC1)Nc1cccc(S(=O)(=O)N2CCCCC2)c1: NO
- COC(=O)c1ccc(C(=O)Nc2cc3ccccc3cc2NC(=O)c2ccc(C(=O)OC)cc2)cc1: YES
- CN(C)c1ccc(CCN2CCc3nc4cccnc4cc3C2)cc1: NO
- COC1C(O)=C2C(=O)O/C(C)=C/C=C/C=C/C=C/CC(c3ccccc3)NC(=O)/C=C/C=C/C=C\C=C\C2(C)C1O (stereo unspecified): NO
- O=C(Nc1cc(F)c2nc(N3CCCC3)ccc2c1)c1ccco1: NO
- COc1cc2c(cc1NC(=O)c1ccc(-n3cnnn3)cc1)oc1ccccc12: NO
- Cc1c(C(=O)c2ccccc2)c2ccccn2c1CCc1ccccn1: NO
- O=C(COC(=O)c1cc(Cl)c2c(c1)OCO2)Nc1ccc2[nH]c(=O)[nH]c2c1: NO
- O=C(O)COc1ccccc1/C=C1\CCc2c1nc1ccccc1c2C(=O)O: NO
- C=Cc1ccc(Cn2cccc(S(=O)(=O)N3CCCC3)c2=O)cc1: NO
- COCCCn1c(C(=O)NCCc2ccccc2)cc2c(=O)n3cccc(C)c3nc21: NO
- CCC(C)c1ccc(O[C@@H]2O[C@@H]3COC(c4ccccc4)O[C@H]3[C@H](O)[C@H]2NC(C)=O)cc1 (stereo partly specified): YES
- Cc1nnc(C(=O)Nc2ccc(C(=O)NCc3ccccc3C)cc2)s1: YES
- Cc1ccc(Nc2nc(C(=O)NCc3ccc4c(c3)OCO4)cc3occc23)cc1Cl: NO
- O=C(C1CCCN(S(=O)(=O)N2CCCCCC2)C1)N1CCN(c2ccccc2)CC1 (stereo unspecified): NO
- Cc1cccc(NC(=O)Nc2nnc(CC(=O)NCc3ccccc3)s2)c1: YES
- CC(=O)Nc1ccc(NC(=O)c2cc(-c3cc(C)cc(C)c3O)n[nH]2)cc1: YES
- O=C(NCc1ccccc1)Nc1cccc2ccccc12: YES
